# assay: gradient 5% acetonitrile 3 min, to 50% in 2 min, to 85% in 15 min, held 3 min, 100 µL/min
# condition-description: column: Zorbax Extend-C18 2.1 x 50 mm; eluents: water / acetonitrile, 0.1% formic acid
Field: RP-LC retention time. Provide a value for each of the molecules that follow.
Just the number in s, nothing appended.

Endpoint output: RP-LC retention time of COC(=O)c1ccc(NC(=O)N2CC(C)Oc3ccc(C)cc32)cc1 (centres undefined) . Value?
1220

Could you share which RP-LC retention time value was measured for Cc1ccc(S(=O)(=O)N2CCCC2c2nc(-c3ccc(Cl)cc3)no2)cc1C (centres undefined) ?
1300

May I ask what RP-LC retention time has been recorded for `COc1ccc(NC(=O)c2nc(N3CCCC3)c3c(C)cc(C)nc3n2)cc1` ?
656

For the molecule shown here, `CCn1cc(CC(=O)NCc2ccc(N3CCOCC3)cc2)c2cccnc21` , give the reported RP-LC retention time.
632

Recorded RP-LC retention time of `Cc1ccnc(NC(=O)C2CCN(S(=O)(=O)c3ccc4c(c3)sc(=O)n4C)CC2)c1` , please.
645

# lookup: RP-LC retention time of `Cn1c(N2CCCN(C(=O)c3ccc(Br)cc3)CC2)cc(=O)n(C)c1=O`
664

Sample CCN1CCN(CCCNC(=O)C2CCCN(c3nc4cccnc4s3)C2)CC1 (centres undefined) — what was its RP-LC retention time?
552

Would you kindly share the measured RP-LC retention time for `CC(C)n1c(=O)sc2cc(S(=O)(=O)N3CCC(C(=O)NCCc4ccccc4)CC3)ccc21` ?
985

Fill in: RP-LC retention time of `COc1ccccc1CNC(=O)c1ccc2c(c1)N(C)C(=O)c1ccccc1O2` is ___
862
